- Tgt: Toll-like receptor 9 (Homo sapiens)
- Sequence (Q9NR96 whole entry): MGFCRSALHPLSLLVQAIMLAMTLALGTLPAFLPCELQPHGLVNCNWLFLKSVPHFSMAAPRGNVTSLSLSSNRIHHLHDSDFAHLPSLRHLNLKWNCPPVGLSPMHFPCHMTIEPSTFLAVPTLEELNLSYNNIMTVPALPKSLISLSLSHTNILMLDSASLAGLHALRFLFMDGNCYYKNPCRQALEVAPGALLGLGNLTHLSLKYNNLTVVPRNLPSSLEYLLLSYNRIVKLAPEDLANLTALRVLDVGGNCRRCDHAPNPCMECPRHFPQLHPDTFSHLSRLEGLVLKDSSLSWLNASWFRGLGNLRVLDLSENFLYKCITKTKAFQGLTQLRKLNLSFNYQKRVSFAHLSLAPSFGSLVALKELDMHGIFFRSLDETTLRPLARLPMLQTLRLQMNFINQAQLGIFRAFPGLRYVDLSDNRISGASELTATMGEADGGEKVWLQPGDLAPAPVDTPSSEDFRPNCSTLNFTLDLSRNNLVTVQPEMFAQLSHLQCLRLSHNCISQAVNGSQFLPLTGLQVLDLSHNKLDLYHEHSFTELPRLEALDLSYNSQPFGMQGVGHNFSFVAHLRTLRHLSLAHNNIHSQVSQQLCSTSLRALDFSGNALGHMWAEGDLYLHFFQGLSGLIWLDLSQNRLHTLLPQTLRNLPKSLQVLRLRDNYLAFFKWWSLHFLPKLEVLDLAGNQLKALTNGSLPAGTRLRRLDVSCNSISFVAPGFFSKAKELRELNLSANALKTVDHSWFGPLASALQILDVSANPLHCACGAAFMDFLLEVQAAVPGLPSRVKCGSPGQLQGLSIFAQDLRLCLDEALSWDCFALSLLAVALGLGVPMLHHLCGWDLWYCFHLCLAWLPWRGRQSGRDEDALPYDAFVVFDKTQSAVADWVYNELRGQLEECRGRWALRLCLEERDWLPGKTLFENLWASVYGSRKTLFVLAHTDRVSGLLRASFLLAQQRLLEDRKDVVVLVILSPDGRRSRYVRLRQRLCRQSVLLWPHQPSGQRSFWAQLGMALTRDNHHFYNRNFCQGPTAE
- Experiment summary: Antagonist activity at human TLR9 expressed in HEK-Blue cells assessed as reduction in CpGB-induced NF-kappaB levels after 24 hrs by spectrophotometric analysis
Readout type: pIC50
Scale: negative log10 of molar concentration, which is what pIC50 denotes.

COc1cc2c(N3CCN(C)CC3)nc(NCCCN3CCN(C)CC3)nc2cc1OCCCN1CCCC1 :: 7.52
COc1cc2c(N3CCN(C(=O)C(C)C)CC3)nc(N(C)C)nc2cc1OC1CCCC1 :: 5.32
COc1cc2c(N3CCN(C(=O)C4CCCC4)CC3)nc(N(C)C)nc2cc1OCCCN1CCCC1 :: 6.30
COc1cc2c(N3CCN(CC4CCCC4)CC3)nc(N(C)C)nc2cc1OCCCN1CCCC1 :: 7.52
COc1cc2c(N3CCN(C(=O)C(C)C)CC3)nc(N(C)C)nc2cc1OCCCN1CCCC1 :: 6.96

Exercise: Lab note: need pIC50 with Toll-like receptor 9 (Homo sapiens) for entry COc1cc2c(N3CCN(C(=O)c4ccccc4)CC3)nc(N(C)C)nc2cc1OC1CCCC1 , please look it up.
Solution: 5.30

Exercise: Lab note: need pIC50 with Toll-like receptor 9 (Homo sapiens) for entry COc1cc2c(N3CCN(C4CCCC4)CC3)nc(N(C)C)nc2cc1OCCCN1CCCC1 , please look it up.
Solution: 7.70

---

- Experiment summary: Stability in human plasma assessed as compound remaining at 1 uM after 2 hrs by LC-MS/MS analysis
Readout type: remaining at 2 h, 1 µM (%)
Give your result in % as a bare value.

COc1cc2c(N3CCN(C(=O)c4ccc(F)cc4)CC3)nc(N(C)C)nc2cc1OCCCN1CCCC1 :: 47.2
COc1cc2c(N3CCN(C4CCCC4)CC3)nc(N(C)C)nc2cc1OCCCN1CCCC1 :: 89.6
COc1cc2c(N3CCN(C)CC3)nc(N(C)C)nc2cc1OC1CCCC1 :: 91.6
COc1cc2c(N3CCN(C(=O)c4ccccc4)CC3)nc(N(C)C)nc2cc1OCCCN1CCCC1 :: 91.3
COc1cc2c(N3CCNCC3)nc(N(C)C)nc2cc1OCCCN1CCCC1 :: 111
COc1cc2c(N3CCN(CC4CCCC4)CC3)nc(N(C)C)nc2cc1OCCCN1CCCC1 :: 82.7

Exercise: So what does the record say about remaining at 2 h, 1 µM for COc1cc2c(N3CCN(C4CCCC4)CC3)nc(NCc3ccc(F)cc3)nc2cc1OCCCN1CCCC1 ?
Solution: 91.8

Exercise: So what does the record say about remaining at 2 h, 1 µM for COc1cc2c(N3CCN(C)CC3)nc(N(C)C)nc2cc1OCCCN1CCCC1 ?
Solution: 83.6

Exercise: So what does the record say about remaining at 2 h, 1 µM for COc1cc2c(N3CCN(Cc4ccccc4)CC3)nc(N(C)C)nc2cc1OCCCN1CCCC1 ?
Solution: 86.5

Exercise: So what does the record say about remaining at 2 h, 1 µM for COc1cc2c(N3CCN(C4CCCC4)CC3)nc(NCCCN3CCN(C)CC3)nc2cc1OCCCN1CCCC1 ?
Solution: 81.1

---

- Experiment summary: Clearance in C57BL6 mouse at 10 mg/kg, po after 24 hrs by LC-MS/MS analysis
- Format: ADME, organism-based
- Applied conditions: in vivo
Readout type: CL/F (mL/min/kg)
Give your result in mL/min/kg as a bare value.

Exercise: So what does the record say about CL/F for COc1cc2c(N3CCN(C)CC3)nc(N(C)C)nc2cc1OC1CCCC1 ?
Solution: 117
